system: P388 leukemia ip, CD2F1 mice, survival T/C; test: NCI In Vivo Anticancer Drug Screen. Data for tumor model P388 Leukemia (intraperitoneal) in CD2F1 (CDF1) mice; conditions: endpoint: median survival time; dose: 100.0 mg/kg/injection; schedule: Q01DX009 (ip); vehicle: suspension in saline; higher = longer survival
Toxic doses and inconclusive results are not listed.
Answer each item with its documented T/C.

In the examples that follow, each entry is paired with its recorded T/C.
>>> val("S=C(Nc1ccc(N=Nc2ccccc2)cc1)SCc1ccc2c(c1)OCO2")
"90 % of control"
>>> val("Nc1nc2c(ncn2C2OC(CO)C(O)C2O)c(=O)[nH]1 (configuration not stated)")
"110 % of control"
>>> val("c1cc2ccc1CSCCCSCc1ccc(cc1)CSCCCSC2")
"98 % of control"
>>> val("Nc1ncnc2c1nc(Br)n2C1OC2COP(=O)(O)OC2C1O (configuration not stated)")
"96 % of control"

// batch mode: one T/C value per listed entry
1. Fc1ccc(CSC(=S)Nc2ccc(F)cc2)cc1
2. S=c1nc[nH][nH]1
3. CCOC(=O)c1[nH]c(=O)c2ccccc2c1O

1. 103 % of control
2. 105 % of control
3. 98 % of control

// batch mode: one T/C value per listed entry
1. C1OC1CO[C@@H]1CO[C@H]2[C@@H]1OC[C@H]2OCC1CO1 (some centres not stated)
2. c1ccc2sc(SSN3CCOCC3)nc2c1
3. O=C1CCSC(=S)N1c1ccc(Br)c(Cl)c1
4. CCCCCCCCCCCCCCCCCC(=O)CS(C)(=O)=O
5. Cc1cc(Br)c(NC(=S)SCc2ccc(Cl)cc2)cc1C

163 % of control
106 % of control
116 % of control
100 % of control
107 % of control
